test: NCI Yeast Anticancer Drug Screen. Data for the bub3 strain (AID 167); conditions: S. cerevisiae bub3 mutant strain, at 50.0 µM, hits give high values
About 79,000 compounds went through this panel and 15% of them were active in at least one assay; those are over-represented in the sample as a whole.
The compounds listed here are annotated with their growth inhibition.
Write it as a number; the unit % goes unstated.

Q. Quote growth inhibition reported for O=[N+]([O-])/C=C\c1ccc2c(c1)OCO2 please.
A. 99

Q. Quote growth inhibition reported for COc1ccccc1NC1=NCC(C)S1 (stereo not given) please.
A. -14.4

Q. Quote growth inhibition reported for O=C(O)C(=O)C(Cl)Br (stereo not given) please.
A. 2.35

Q. Quote growth inhibition reported for O=C(N=[C-]c1ccc[oH+]1)c1cccnc1.O=C(N=[C-]c1ccc[oH+]1)c1cccnc1.[Ni+2] please.
A. -31.8

Continuing:
Q. Quote growth inhibition reported for O=C(O)C(Cl)(Cl)Cl please.
A. -17.4

Q. Quote growth inhibition reported for COc1ccc2nc3ccccc3nc2c1 (tested in a mixture with another compound) please.
A. 24.1

Q. Quote growth inhibition reported for CCC(=O)C(c1ccccc1)(c1ccccc1)C(C)CN1CCCCCCC1 (stereo not given) please.
A. 10.8
